Quick reference for GI50 among some compounds
Tested on: IGROV1 ovarian
Experiment: NCI tumour cell line growth inhibition, 48 h
measurementLabel: GI50

[[record]]
compound = "COc1cc(/C=C/C(=O)c2ccc(NC(=O)CN3C(=O)NC(C)(c4ccccc4)C3=O)cc2)cc(OC)c1OC (centres undefined)"
system = "IGROV1 ovarian"
result = "4.85 µM"

[[record]]
compound = "COc1cc(/C=N/NC(=O)c2ccc3nc(-c4ccc(Cl)cc4)[nH]c3c2)cc(OC)c1OC"
system = "IGROV1 ovarian"
result = "11 µM"

[[record]]
compound = "COc1ccc(C(=O)/C=C/c2ccc(OCc3ccc(F)cc3)c(OC)c2)cc1OC"
system = "IGROV1 ovarian"
result = "3.88 µM"

[[record]]
compound = "O=C([Se]C1C=CCCC1)c1ccc(C(=O)[Se]C2C=CCCC2)s1 (centres undefined)"
system = "IGROV1 ovarian"
result = "1.81 µM"


These data points were gathered from PubChem BioAssay (NCI).
